# studyTarget: KRASG12-dependent Ba/F3 cells (Homo sapiens, UniProt P01116, G12C, cells depend on it)
# Sequence (P01116 whole entry G12C): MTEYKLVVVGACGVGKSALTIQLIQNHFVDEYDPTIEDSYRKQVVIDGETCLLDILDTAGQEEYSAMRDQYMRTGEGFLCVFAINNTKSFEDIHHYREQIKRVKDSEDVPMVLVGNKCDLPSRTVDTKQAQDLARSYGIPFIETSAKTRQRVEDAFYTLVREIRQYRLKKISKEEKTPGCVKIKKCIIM
# assayNotes: Ba/F3 cell model proliferation assay (AlamarBlue, 72 h)
# Format: cell-based
# studyConditions: Ba/F3 cells transduced with KRASG12C, read-out: IC50 Ba/F3 KRASG12C
metric: GI50
Quick note: number first, unit second.

// each listed compound needs a value for GI50
1. C=CC(=O)N1CCN(c2cc(O[C@@H](C)[C@@H]3CCCN3C)nc(-c3noc([C@@]4(C)CCCc5sc(N)c(C#N)c54)n3)n2)CC12CC2
2. C=CC(=O)N1CCN(c2cc(O[C@@H](C)[C@@H]3CCCN3C)nc(-c3noc([C@@]4(C)CCCc5sc(N)c(C#N)c54)n3)c2)CC12CCCC2
3. C=CC(=O)N1CC2(CCN(c3cc(-c4noc([C@@]5(C)CCCc6sc(N)c(C#N)c65)n4)nc(N4CCCN(C)C[C@@H]4C)n3)C2)C1
4. C=CC(=O)N1CCN(C2CN(c3cc(-c4noc([C@@]5(C)CCCc6sc(N)c(C#N)c65)n4)nc(N4CCCN(C)C[C@@H]4C)n3)C2)CC1
5. C=CC(=O)N1CCN(c2cc(-c3noc(C4(C)CCCc5sc(N)c(C#N)c54)n3)nc(N3CCC4(CCN(C)CC4)CC3)c2)CC1 (stereo not shown)

Marked response:
["6.9 nM", "9.9 nM", "2290 nM", "2200 nM", "4380 nM"]

###

# studyTarget: protein-protein interaction between SOS1 and KRAS G12C (Homo sapiens, UniProt P01116, C118S/C51S/C80L/G12C)
# Construct: His6 (N)
# Sequence (P01116 1-169 isoform P01116-2 G12C/C51S/C80L/C118S): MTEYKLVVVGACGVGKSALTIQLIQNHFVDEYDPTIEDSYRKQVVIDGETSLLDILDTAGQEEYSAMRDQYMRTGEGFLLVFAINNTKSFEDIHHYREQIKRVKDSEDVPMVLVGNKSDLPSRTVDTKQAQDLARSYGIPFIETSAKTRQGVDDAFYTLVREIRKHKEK
# assayNotes: KRAS::SOS1 AlphaScreen binding assay
# studyConditions: Table 36
metric: pIC50
Answers are plain numbers, as −log10 of the molar value.

Example entries begin here.
>>> observedresult("C=CC(=O)N1C[C@@H]2CN(c3cc(-c4noc([C@@]5(C)CCCc6sc(N)c(C#N)c65)n4)nc(N4CCCN(C)C[C@@H]4C)n3)[C@@H]2C1 [Ia-101]")
7.36
>>> observedresult("C=CC(=O)N1CCN(c2cc(-c3noc(C4(C)CCCc5sc(N)c(C#N)c54)n3)nc(N3C4CCC3CN(C)C4)c2)CC1 (centres unmarked) [Ia-16]")
6.97
>>> observedresult("C=CC(=O)N1CCN(c2cc(-c3noc(C4(C)CCCc5sc(N)c(C#N)c54)n3)nc(N3C[C@@H](C)N(CC)[C@@H](C)C3)c2)CC1 (some centres unmarked) [Ia-21]")
7.29
>>> observedresult("C=CC(=O)N1CCN(c2cc(O[C@@H](C)[C@@H]3CCCN3C)nc(-c3noc([C@@]4(C)CCCc5sc(N)c(C#N)c54)n3)c2)CC12CCC2 [Ia-83]")
8.70
>>> observedresult("C=CC(=O)N1CCN(c2cc(-c3noc(C4(C)CCCc5sc(N)c(C#N)c54)n3)nc(N3CCN4CCC[C@H]4C3)c2)CC1 (some centres unmarked) [Ia-148]")
7.62

// each listed compound needs a value for pIC50
1. C=CC(=O)N1CCC(Oc2cc(-c3noc(C4(C)CCCc5sc(N)c(C#N)c54)n3)nc(N3CCC4(CCN(C)CC4)CC3)c2)CC1 (centres unmarked) [Ia-78]
2. C=CC(=O)N1CCN(c2cc(-c3noc(C4(C)CCCc5sc(N)c(C#N)c54)n3)nc(N3CCN(C4CCN(C)CC4)CC3)c2)CC1 (centres unmarked) [Ia-28]
3. [2H]C([2H])([2H])N1CCN(c2cc(N3CCN(C(=O)C=C)CC3)cc(-c3noc(C4(C)CCCc5sc(N)c(C#N)c54)n3)n2)CC1 (centres unmarked) [Ia-128]
4. C=CC(=O)N1[C@H](C)CC(Oc2cc(O[C@@H](C)[C@@H]3CCCN3C)nc(-c3noc([C@@]4(C)CCCc5sc(N)c(C#N)c54)n3)c2)C[C@H]1C (some centres unmarked) [Ia-86]

Marked response:
1. 6.81
2. 6.82
3. 7.19
4. 8.70

// each listed compound needs a value for pIC50
1. C=CC(=O)N1CCN(c2cc(-c3noc([C@@]4(C)CCCc5sc(N)c(C#N)c54)n3)nc(O[C@@H](C)[C@@H]3CCCN3C)n2)[C@@H](C)C1 [Ia-54]
2. C=CC(=O)N1CCN(c2cc(-c3noc(C4(C)CCCc5sc(N)c(C#N)c54)n3)nc(N3CCN(C4COC4)CC3)c2)CC1 (centres unmarked) [Ia-18]

Marked response:
[8.80, 6.44]

###

# studyTarget: KRASG12-dependent Ba/F3 cells (Homo sapiens, UniProt P01116, G12C, cells depend on it)
# assayNotes: Ba/F3 cell model proliferation assay (AlamarBlue, 72 h)
# Format: cell-based
# studyConditions: Ba/F3 cells transduced with KRASG12C, read-out: IC50 Ba/F3 KRASG12C
Entries whose GI50 is below 20 nM take class 1; entries at or above 20 nM take class 0.

Use these answered entries as a reference point.
>>> labelclass("C=CC(=O)N1CCC(Oc2cc(O[C@@H](C)[C@@H]3CCCN3C)nc(-c3noc([C@@]4(C)CCCc5sc(N)c(C#N)c54)n3)c2)CC1 [Ia-4]")
"class 1"
>>> labelclass("C=CC(=O)N1[C@H](C)CN(c2cc(-c3noc([C@@]4(C)CCCc5sc(N)c(C#N)c54)n3)nc(O[C@@H](C)[C@@H]3CCCN3C)n2)C[C@@H]1C [Ia-64]")
"class 1"
>>> labelclass("C=CC(=O)N1CCN(c2cc(-c3noc([C@@]4(C)CCCc5sc(N)c(C#N)c54)n3)nc(OC[C@@H]3C[C@@H]4C[C@@H]4N3C)n2)CC1 [Ia-71]")
"class 0"
>>> labelclass("C=CC(=O)N1CCN(c2cc(-c3noc([C@@]4(C)CCCc5sc(N)c(C#N)c54)n3)nc(O[C@@H](C)[C@@H]3CCCN3C)n2)C(C)C1C (some centres unmarked) [Ia-53]")
"class 1"
>>> labelclass("C=CC(=O)N1CCN(c2cc(-c3noc([C@@]4(C)CCCc5sc(N)c(C#N)c54)n3)nc(O[C@@H](C)[C@@H]3CCCN3C3CCN(C)CC3)n2)CC1 [Ia-135]")
"class 0"

Exam item: Check if GI50 falls below 20 nM for C=CC(=O)N1CCC2(CCN(c3cc(-c4noc([C@@]5(C)CCCc6sc(N)c(C#N)c65)n4)nc(N4CCCN(CCCOC)C[C@@H]4C)n3)CC2)C1 [Ia-98] .
Marked response: class 0

Exam item: Check if GI50 falls below 20 nM for C=CC(=O)N1CCN(c2cc(-c3noc([C@@]4(C)CCCc5sc(N)c(C#N)c54)n3)nc(O[C@@H](C)[C@@H]3CCCN3C)n2)C2CCCC21 (some centres unmarked) [Ia-60] .
Marked response: class 1

###

# studyTarget: KRASG12-dependent Ba/F3 cells (Homo sapiens, UniProt P01116, G12C, cells depend on it)
# assayNotes: Ba/F3 cell model proliferation assay (AlamarBlue, 72 h)
# Format: cell-based
# studyConditions: Ba/F3 cells transduced with KRASG12C, read-out: IC50 Ba/F3 KRASG12C
metric: GI50 (nM)
Numbers only, in nM.

Example entries begin here.
>>> observedresult("C=CC(=O)N1C[C@H](Oc2cc(O[C@@H](C)[C@@H]3CCCN3C)nc(-c3noc([C@@]4(C)CCCc5sc(N)c(C#N)c54)n3)c2)[C@H]1C [Ia-85]")
0.7
>>> observedresult("C=CC(=O)N1CCN(c2cc(-c3noc([C@@]4(C)CCCc5sc(N)c(C#N)c54)n3)nc(N3CCCN(C)C[C@@H]3C)n2)CC1 [Ia-131]")
22.4
>>> observedresult("C=CC(=O)N1CCC(Oc2cc(-c3noc(C4(C)CCCc5sc(N)c(C#N)c54)n3)nc(N3CCN(C)C[C@@H]3C)c2)CC1 (stereo partly shown) [Ia-114]")
12.6

Then this compound:
Exam item: Report value: GI50, system: KRASG12-dependent Ba/F3 cells (Homo sapiens, UniProt P01116, G12C, cells depend on it), compound: C=CC(=O)N1CCN(c2cc(-c3noc(C4(C)CCCc5sc(N)c(C#N)c54)n3)nc(N3CCC(N4CC[C@@H](F)C4)CC3)c2)CC1 (stereo partly shown) [Ia-39]
Marked response: 87.6
